Target: human glucagon receptor (human, UniProt P47871 26-477)
Sequence (P47871 26-477): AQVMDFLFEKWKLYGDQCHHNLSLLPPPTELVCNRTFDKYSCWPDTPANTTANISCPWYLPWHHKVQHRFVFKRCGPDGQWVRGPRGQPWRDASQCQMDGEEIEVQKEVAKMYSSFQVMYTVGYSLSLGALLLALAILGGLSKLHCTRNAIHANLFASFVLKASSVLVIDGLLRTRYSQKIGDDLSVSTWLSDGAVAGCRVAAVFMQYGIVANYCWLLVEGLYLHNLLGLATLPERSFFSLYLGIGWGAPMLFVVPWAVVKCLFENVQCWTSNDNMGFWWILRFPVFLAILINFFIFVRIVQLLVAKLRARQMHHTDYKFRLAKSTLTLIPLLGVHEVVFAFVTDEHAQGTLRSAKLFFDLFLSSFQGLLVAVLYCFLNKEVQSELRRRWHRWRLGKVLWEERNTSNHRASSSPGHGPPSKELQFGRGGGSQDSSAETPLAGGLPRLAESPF
Assay: cell-based or functional assay
Square brackets hold non-standard residues; d marks the D form. Ends that are not written are not given here. PhLac = O=C(O)[C@@H](O)Cc1ccccc1
readout.label: IC50 (cAMP, inhibit 0.2 mM Glucagon)
Write the numeric value and follow it with the unit.

Exercise: Entry C(PEG 1.2 kDa)FTSEYSKYLDSRRAQDFVQWLMNT-NH2 [[C^5(1.2kDaPEG), E^9]Glucagon(aa5-29)-NH2] has what IC50 (cAMP, inhibit 0.2 mM Glucagon)?
Key: 2280 nM

Exercise: What do we get for [PhLac]TC(PEG 5 kDa)EYSKYLDSRRAQDFVQWLMNT-NH2 [[PLA^6, C^8(5kDaPEG), E^9]Glucagon(aa6-29)-NH2] ?
Key: 216 nM

Exercise: What do we get for [PhLac]TSEYSKYLDSRRAQDFVC(PEG 1.2 kDa)WLMNT-NH2 [[PLA^6, E^9,C^24(1.2 kDaPEG)]Glucagon(aa6-29)-NH2] ?
Key: 18 nM

Exercise: What do we get for C(PEG 5 kDa)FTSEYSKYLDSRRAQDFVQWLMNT-NH2 [[C^5(5kDaPEG), E^9]Glucagon(aa5-29)-NH2] ?
Key: 1610 nM

Exercise: What do we get for [PhLac]TSEYSKYLDSRRAQDFVC(PEG 20 kDa)WLMNT-NH2 [[PLA^6, E^9, C^24(20kDaPEG)]Glucagon(aa6-29)-NH2] ?
Key: 126 nM
